Answer each item with its documented change of melting temperature, mutant - wild type (higher = more stable).
B1: Haloalkane dehalogenase, D4Z2G1 (parent)
chain: MSLGAKPFGEKKFIEIKGRRMAYIDEGTGDPILFQHGNPTSSYLWRNIMPHCAGLGRLIACDLIGMGDSDKLDPSGPERYAYAEHRDYLDALWEALDLGDRVVLVVHDWGSALGFDWARRHRERVQGIAYMEAIAMPIEWADFPEQDRDLFQAFRSQAGEELVLQDNVFVEQVLPGLILRPLSEAEMAAYREPFLAAGEARRPTLSWPRQIPIAGTPADVVAIARDYAGWLSESPIPKLFINAEPGALTTGRMRDFCRTWPNQTEITVAGAHFIQEDSPDEIGAAIAAFVRRLRPA

- Variants of: B1
- CONDITION SET: Sphingobium indicum (strain DSM 16413 / CCM 7287 / MTCC 6362 / UT26 / NBRC 101211 / UT26S); pH 7.5; Thermal; fluorescence; Na-Hepes 50 mM; reversible: no; structure 1MJ5; whole UniProt chain shown

Example entries begin here.
1) C61P: -0.5 °C
2) E233S: 0.5 °C
3) G229T: 0.5 °C

Please state, for each entry, its recorded change of melting temperature, mutant - wild type (higher = more stable).
1. A185P
2. L3S
3. E192K
4. G176N
5. K6E
6. D255Q
7. G176A

1. -0.5 °C
2. -0.5 °C
3. 3 °C
4. 0 °C
5. 0 °C
6. -0.5 °C
7. 0.5 °C

Please state, for each entry, its recorded change of melting temperature, mutant - wild type (higher = more stable).
1. E192L
2. A269P
3. G229D
4. G229S

["0.5 °C", "-1 °C", "0.5 °C", "1 °C"]

Please state, for each entry, its recorded change of melting temperature, mutant - wild type (higher = more stable).
1. R101H
2. E26V
3. S183C E186C

1. 0 °C
2. 0 °C
3. -4 °C

Please state, for each entry, its recorded change of melting temperature, mutant - wild type (higher = more stable).
1. A53K
2. T249L

1: 0 °C; 2: 11.5 °C

Please state, for each entry, its recorded change of melting temperature, mutant - wild type (higher = more stable).
1. D149Q
2. A218P
3. Q152L

["11 °C", "0.5 °C", "10.5 °C"]
